measurement.notes: Metabolic stability in rat whole blood assessed as parent compound remaining measured after 5 mins by LC-MS analysis
Assay type: ADME, tissue-based
test.parameters: read-out: Stability
observable: remaining at 5 min (%)
Report only the number, with the unit % understood.

[[record]]
compound = "C=C[C@]1(C)C[C@@H](OC(=O)CSCCN(CC)CC)[C@]2(C)[C@H](C)CC[C@]3(CCC(=O)[C@H]32)[C@@H](C)[C@@H]1O"
observable = "remaining at 5 min"
output_unit = "%"
quantitative_result = 94.8


Need remaining at 5 min of C=C[C@]1(C)C[C@@H](OC(=O)CS[C@@H]2C[C@H]3CC[C@@H](C2)N3C)[C@]2(C)[C@H](C)CC[C@]3(CCC(=O)[C@H]32)[C@@H](C)[C@@H]1O , thanks.
99.2

Record: CC(Cc1cccc(C(F)(F)F)c1)NCCOC(=O)c1ccccc1 (centres undefined)
77.8

Record: C=C[C@]1(C)C[C@@H](OC(=O)CSc2nc3[nH]ccc3c(=O)[nH]2)[C@]2(C)[C@H](C)CC[C@]3(CCC(=O)[C@H]32)[C@@H](C)[C@@H]1O
94.4

---

Tested on: Staphylococcus aureus
measurement.notes: microbe, parasite or virus in culture
Format: functional
test.parameters: time 20 hrs
Parameter: MIC. Scope: all listed entries.

See these solved cases before continuing.
[[record]]
structure = "C=C[C@]1(C)C[C@@H](OC(=O)CSc2nc3ccc(C)cc3c(=O)[nH]2)[C@]2(C)[C@H](C)CC[C@]3(CCC(=O)[C@H]32)[C@@H](C)[C@@H]1O"
result = "0.5 µg/mL"

[[record]]
structure = "C=C[C@]1(C)C[C@@H](OC(=O)CSc2nc3c(Cl)cccc3c(=O)[nH]2)[C@]2(C)[C@H](C)CC[C@]3(CCC(=O)[C@H]32)[C@@H](C)[C@@H]1O"
result = "0.125 µg/mL"

[[record]]
structure = "C=C[C@]1(C)C[C@@H](OC(=O)CSc2nc3ccc(Br)cc3c(=O)[nH]2)[C@]2(C)[C@H](C)CC[C@]3(CCC(=O)[C@H]32)[C@@H](C)[C@@H]1O"
result = "0.25 µg/mL"

[[record]]
structure = "C=C[C@]1(C)C[C@@H](OC(=O)CSc2nc3cccc(C)c3c(=O)[nH]2)[C@]2(C)[C@H](C)CC[C@]3(CCC(=O)[C@H]32)[C@@H](C)[C@@H]1O"
result = "0.25 µg/mL"

[[record]]
structure = "C=C[C@]1(C)C[C@@H](OC(=O)CSc2nc3cc(C)ccc3c(=O)[nH]2)[C@]2(C)[C@H](C)CC[C@]3(CCC(=O)[C@H]32)[C@@H](C)[C@@H]1O"
result = "0.5 µg/mL"


We next turn to a different compound, shown below.
Need MIC of C=C[C@]1(C)C[C@@H](OC(=O)CSc2nc3ccc(Cl)cc3c(=O)[nH]2)[C@]2(C)[C@H](C)CC[C@]3(CCC(=O)[C@H]32)[C@@H](C)[C@@H]1O , thanks.
0.25 µg/mL

---

measurement.notes: Metabolic stability in rat liver microsomes assessed as parent compound remaining incubated for 45 mins in the presence of NADPH by LC/MS analysis
Assay type: ADME, Microsome
test.parameters: read-out: Stability
Labelling: remaining at 0.75 h reported below 0.9% becomes Fulfilled; at or above becomes Not fulfilled.

Past entries and their recorded results:
[[record]]
structure = "C=C[C@]1(C)C[C@@H](OC(=O)CN2CCN(c3nc4ccccc4c(=O)[nH]3)CC2)[C@]2(C)[C@H](C)CC[C@]3(CCC(=O)[C@H]32)[C@@H](C)[C@@H]1O"
qualitative_label = "Fulfilled"

[[record]]
structure = "C=C[C@]1(C)C[C@@H](OC(=O)CSc2nc3[nH]ccc3c(=O)[nH]2)[C@]2(C)[C@H](C)CC[C@]3(CCC(=O)[C@H]32)[C@@H](C)[C@@H]1O"
qualitative_label = "Not fulfilled"

[[record]]
structure = "O=C(c1ccc(F)cc1)C1CCN(CCn2c(=O)[nH]c3ccccc3c2=O)CC1"
qualitative_label = "Not fulfilled"

[[record]]
structure = "C=C[C@]1(C)C[C@@H](OC(=O)CSc2nc3c(F)cccc3c(=O)[nH]2)[C@]2(C)[C@H](C)CC[C@]3(CCC(=O)[C@H]32)[C@@H](C)[C@@H]1O"
qualitative_label = "Fulfilled"


Please state whether remaining at 0.75 h is below 0.9% for C=C[C@]1(C)C[C@@H](OC(=O)CS[C@@H]2C[C@H]3CC[C@@H](C2)N3C)[C@]2(C)[C@H](C)CC[C@]3(CCC(=O)[C@H]32)[C@@H](C)[C@@H]1O
Not fulfilled
